# System: MS2 coat protein
# assay info: apparent KD of MS2 coat protein; designed switch direction (-1 OFF switch, 1 ON switch): 1; higher = weaker reporter binding
# measurement setup: Eterna round: R95; input ligand: FMN 200 uM
Use YES when the recorded apparent KD of MS2 coat protein is no lower than 400 nM; use NO when it is lower.

| sequence data | measurement target | assigned label |
| --- | --- | --- |
| GGGCCAGCUUGUGCUGGGCCUUCGCAUGCACAUGAGGAUCACCCAUGUCGUGUACAUGCUUGGUGCCCGUCUUUCCC [Photon Torp-14] (puzzle: Sensor for hsa-mir-208a) | MS2 coat protein | NO |
| AAGAGAGGAAGCGAGGAUAUCGUGGGAGGGACAUGAGGAUCACCCAUGUAGGAUGUAGAGAGGAACGAGAAGGCGCAGGAAAGAA [JR_SS2_Sub073] (puzzle: Same State 2) | MS2 coat protein | NO |
| AUAAAACAUGAGGAUCACCCAUGUCAACAAAUUCGAGGAUAUGGGCAAAUAAAAUAAGAACCAGAAGGCGAAUAAU [salish99_ss1_r3_038] (puzzle: Same State 1) | MS2 coat protein | NO |
| AGUCCAGCCUGAGCUGGACAAAAGCAUGUACAUGAGGAUCACCCAUGUUCAUGUACAAGCUUUUUGCUCGUCUUAAG [salish99_208a_r3_028] (puzzle: Sensor for hsa-mir-208a) | MS2 coat protein | YES |
| UUUAUACAUGAGGAUCACCCAUGUCAACGUAGUCGAGGAUAUGGGCAGCCGUGAGGCGUACUAGAAGGCGAAGAGG [JL-ss1-3.08 ViennaUCT mod] (puzzle: Same State 1) | MS2 coat protein | NO |
| AGUCCAGCCUGAGCUGGACAAAAGCAUGUACAUGAGGAUCACCCAUGUCGUGUACAAGCUUUUUGCUCGUCUUAAAA [Zipper 46 - 5] (puzzle: Sensor for hsa-mir-208a) | MS2 coat protein | NO |
| GAGAGAGGAAGCGAGGAUAUCGUGUUGGGUACAUGAGGAUCACCCAUGUUGUAGGUAGAGGUAGGCGAGAAGGCGCAGGAGAGGU [JR_SS2_Sub096] (puzzle: Same State 2) | MS2 coat protein | NO |
| AACCAACAAAUAAAACAAGCGUGCUCGUCACAUGAGGAUCACCCAUGUUUAAGCGCUGUUCCUACAUCCGCAGCGCC [Inbitiar] (puzzle: Sensor for hsa-mir-208a) | MS2 coat protein | NO |
| AGUCCAGCCUGAGCUGGACAAAAGCAUGUACAUGAGGAUCACCCAUGUUCAUGUACAAGCUUUUUGCUCGAAUUAAA [Mat - hsa-mir-208a - Mod of JL - 53] (puzzle: Sensor for hsa-mir-208a) | MS2 coat protein | YES |
| AGUCCAGCCUGAGCUGGACAAAAGCAUGUACAUGAGGAUCACCCAUGUCAUGUACAGGCUUUUUGCUCGUCUUAAUA [Zipper 49 - 7] (puzzle: Sensor for hsa-mir-208a) | MS2 coat protein | YES |

====

# Tested on: MS2 coat protein
# assay info: apparent KD of MS2 coat protein; designed switch direction (-1 OFF switch, 1 ON switch): -1; higher = weaker reporter binding
# measurement setup: input ligand: none
Catalogue of sequences with associated apparent KD of MS2 coat protein

| sequence data | measurement units | apparent KD of MS2 coat protein |
| --- | --- | --- |
| GUAGAGUGAGGAUAUACGAGAUCGAUAGAUCGGCGAUCCAAACAUGAGGAUCACCCAUGUAGAAGGCACUCUAC [Mat - Exclusion 2 - Eli Mod - D6] (Eterna round: R97, puzzle: Exclusion 2) | nM | 90.4 |
| AUAAGGGCAGGAUAUGCAGAAAAGAUUGGCGUGGUCCUGACACAUGAGGAUCACCCAUGUAGAAGGGCCUAGCC [Maquzaar] (Eterna round: R97, puzzle: Exclusion 2) | nM | 14.8 |
| CAGAAGUGAGGAUAUAUAUGUAAGUUUGAUCCAACAAGUAUACAUGAGGAUCACCCAUGUAGAAGGUGCUUCCC [Eternabot (L2) Solution 45] (Eterna round: R97, puzzle: Exclusion 2) | nM | 44.6 |
| AUAAUACAUGUAGGAUAUGCGUGGCGAAGCUAUGCAGAAGGACAUGAGGAUCACCCAUGUCUUAGCGUCUGCGUACAGAUGCUA [JL eng1 1.35 mod 2] (Eterna round: R96, puzzle: Exclusion NG 1) | nM | 16.4 |
| GUAUAACAUGUAGGAUAUGCGUGGCGAAGCUAUGCAGAAGGACAUGAGGAUCACCCAUGUAAUAGCGUCUGCGUACAGAUGCAA [Mat - Exclusion NG 1 - Mod of JL - D90] (Eterna round: R96, puzzle: Exclusion NG 1) | nM | 40.8 |
